Data provenance is patent US9168259B2.

- target-or-system: KCNQ2/3 channels (Homo sapiens, UniProt O43525+O43526)
- Construct: expressed in transfected cells
- Sequence (O43526 whole entry): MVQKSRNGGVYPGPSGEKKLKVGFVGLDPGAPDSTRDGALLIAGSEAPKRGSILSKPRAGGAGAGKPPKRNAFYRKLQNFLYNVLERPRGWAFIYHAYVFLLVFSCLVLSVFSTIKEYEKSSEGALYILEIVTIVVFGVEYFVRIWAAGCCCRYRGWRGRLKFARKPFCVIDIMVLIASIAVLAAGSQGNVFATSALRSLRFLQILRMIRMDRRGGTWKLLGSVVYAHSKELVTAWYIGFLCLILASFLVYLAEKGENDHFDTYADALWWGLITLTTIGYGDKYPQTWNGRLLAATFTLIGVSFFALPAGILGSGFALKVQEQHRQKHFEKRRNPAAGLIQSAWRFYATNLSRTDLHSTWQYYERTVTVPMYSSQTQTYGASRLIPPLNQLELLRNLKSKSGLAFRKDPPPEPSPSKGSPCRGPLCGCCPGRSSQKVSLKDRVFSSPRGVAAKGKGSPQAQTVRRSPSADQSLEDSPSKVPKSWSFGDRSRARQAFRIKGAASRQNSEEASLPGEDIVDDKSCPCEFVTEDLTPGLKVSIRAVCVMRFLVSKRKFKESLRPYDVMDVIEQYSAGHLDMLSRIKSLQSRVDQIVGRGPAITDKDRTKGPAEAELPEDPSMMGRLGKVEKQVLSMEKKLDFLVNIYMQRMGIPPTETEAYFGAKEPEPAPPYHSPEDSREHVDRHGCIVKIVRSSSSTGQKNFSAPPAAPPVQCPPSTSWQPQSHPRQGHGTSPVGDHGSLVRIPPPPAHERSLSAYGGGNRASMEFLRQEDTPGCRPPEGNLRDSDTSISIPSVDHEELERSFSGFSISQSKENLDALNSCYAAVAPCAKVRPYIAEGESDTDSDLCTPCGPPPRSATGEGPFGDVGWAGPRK
- Sequence (O43525 whole entry): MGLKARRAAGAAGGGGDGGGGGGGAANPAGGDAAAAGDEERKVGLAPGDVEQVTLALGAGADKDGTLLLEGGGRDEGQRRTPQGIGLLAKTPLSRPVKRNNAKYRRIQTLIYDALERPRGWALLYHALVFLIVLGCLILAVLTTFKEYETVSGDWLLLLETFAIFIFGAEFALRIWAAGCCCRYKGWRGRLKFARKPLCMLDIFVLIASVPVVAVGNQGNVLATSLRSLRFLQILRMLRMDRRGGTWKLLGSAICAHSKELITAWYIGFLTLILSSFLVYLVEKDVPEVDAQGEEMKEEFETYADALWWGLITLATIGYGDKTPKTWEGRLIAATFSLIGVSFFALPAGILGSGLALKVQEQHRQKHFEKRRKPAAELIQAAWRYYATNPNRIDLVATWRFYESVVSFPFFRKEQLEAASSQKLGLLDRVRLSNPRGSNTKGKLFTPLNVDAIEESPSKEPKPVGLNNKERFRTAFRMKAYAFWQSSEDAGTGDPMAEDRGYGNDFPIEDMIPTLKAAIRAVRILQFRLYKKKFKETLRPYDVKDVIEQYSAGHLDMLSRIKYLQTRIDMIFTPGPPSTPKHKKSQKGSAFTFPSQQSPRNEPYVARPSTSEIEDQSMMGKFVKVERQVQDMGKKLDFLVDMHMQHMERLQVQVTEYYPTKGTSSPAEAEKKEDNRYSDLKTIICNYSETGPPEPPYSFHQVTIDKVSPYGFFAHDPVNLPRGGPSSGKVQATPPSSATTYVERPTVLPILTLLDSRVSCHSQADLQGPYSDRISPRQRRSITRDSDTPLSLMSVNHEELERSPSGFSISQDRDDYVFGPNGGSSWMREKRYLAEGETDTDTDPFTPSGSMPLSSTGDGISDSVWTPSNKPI
- experiment-description: Fluorescence assay using a voltage sensitive dye (fluorimetry)
- Format: cell-based
- cond: CHO-K1, plateau effect relative to saturated retigabine (50 μM) = 100%; CHO-K1 cells expressing KCNQ2/3; negative values = antagonistic; read-out: Fluorimetry % efficacy (retigabine = 100%)
recorded-endpoint: Emax (%)

INSERT INTO measurements (molecule, recorded_result) VALUES
  ('CCCC1COCCN1c1cc(C)c(C(=O)NCc2cccc(F)c2)c(SCC)n1 (centres unmarked)', 131),
  ('Cc1cc(N2CCOCC2)nc(N(C)C)c1C(=O)NCCCC(C)(C)C', 225),
  ('CCSc1nc(N2CCOCC2)cc(C)c1C(=O)NCc1ccc(OC)cc1', 151);

P = COCc1ccc(CNC(=O)c2c(C)cc(N3CCOCC3)nc2C2CC2)cc1F
Q = CCSc1nc(N2CCOC[C@@H]2CO)cc(C)c1C(=O)NCc1cccc(F)c1
## Task Rank P against Q by their Emax values and give the higher one. // respond with label for picked entry
## Result P
(P: 167%, Q: 114%)

---

- target-or-system: KCNQ2/3 channels (Homo sapiens, UniProt O43525+O43526)
- Construct: expressed in transfected cells
- experiment-description: Fluorescence assay using a voltage sensitive dye (fluorimetry)
- Assay type: cell-based
- cond: CHO-K1 cells expressing KCNQ2/3; IC50 where % efficacy is negative; read-out: Fluorimetry EC50/IC50
recorded-endpoint: EC50 (nM)

a = COCCCc1nc(N2CCOCC2)cc(C)c1C(=O)NCCCC(C)(C)C
b = CCSc1nc(N(C)C)cc(C)c1C(=O)NCc1cccc(F)c1
## Task Rank a against b by their EC50 values and give the higher one. // respond with label for picked entry
## Result a

---

- target-or-system: KCNQ2/3 channels (Homo sapiens, UniProt O43525+O43526)
- Construct: expressed in transfected cells
- experiment-description: Fluorescence assay using a voltage sensitive dye (fluorimetry)
- Assay type: cell-based
- cond: CHO-K1, plateau effect relative to saturated retigabine (50 μM) = 100%; CHO-K1 cells expressing KCNQ2/3; negative values = antagonistic; read-out: Fluorimetry % efficacy (retigabine = 100%)
recorded-endpoint: Emax (%)

A selection of reference data follows.
INSERT INTO measurements (molecule, target_or_system, recorded_endpoint, recorded_result) VALUES
  ('CCSc1nc(N2CCOCC2)cc(C)c1C(=O)NCc1cc(C)cc(C)c1 [Example 208]', 'KCNQ2/3 channels (Homo sapiens, UniProt O43525+O43526)', 'Emax', 61),
  ('Cc1cc(N2CCOCC2)nc(C(C)C)c1C(=O)NCc1cc(F)cc(F)c1 [Example 316]', 'KCNQ2/3 channels (Homo sapiens, UniProt O43525+O43526)', 'Emax', 160),
  ('CCSc1nc(N2CCO[C@H](C)C2)cc(C)c1C(=O)NCc1cccc(F)c1 [Example 139]', 'KCNQ2/3 channels (Homo sapiens, UniProt O43525+O43526)', 'Emax', 146),
  ('CCSc1nc(N2CC(C)OCC2C)cc(C)c1C(=O)NCc1cccc(F)c1 (stereo not shown) [Example 240]', 'KCNQ2/3 channels (Homo sapiens, UniProt O43525+O43526)', 'Emax', 174),
  ('CCC(C)Cc1nc(N2CCOCC2)cc(C)c1C(=O)NCCCC(C)(C)C (stereo not shown) [Example 278]', 'KCNQ2/3 channels (Homo sapiens, UniProt O43525+O43526)', 'Emax', 225);

I = CCC(C)(C)c1nc(N2CCOCC2)cc(C)c1C(=O)NCCCC(C)(C)C [Example 279]
II = CCSc1nc(N2CCC(O)CC2)cc(C)c1C(=O)NCc1cccc(F)c1 [Example 15]
III = CCOc1nc(N2CCOCC2)cc(C)c1C(=O)NCCCC(C)(C)C [Example 89]
## Task Task field, ranking: reported Emax, descending order. Answer with the labels in sequence, matching the requested order.
## Result III, I, II

a = COc1nc(N2CCOCC2)cc(C)c1C(=O)NCc1ccc(F)c(F)c1 [Example 87]
b = CCSc1nc(N2CCO[C@@H](C)C2)cc(C)c1C(=O)NCCCC(C)(C)C [Example 274]
## Task Rank a against b by their Emax values and give the higher one. // respond with label for picked entry
## Result b
(b: 217%, a: 138%)

P = Cc1cc(N2CCOCC2)nc(N(C)C)c1C(=O)NCCCC(F)(F)F [Example 246]
Q = CCSc1nc(N2CCOCC2)cc(C)c1C(=O)NCc1ccc(F)c(C(F)(F)F)c1 [Example 82]
## Task Rank P against Q by their Emax values and give the higher one. // respond with label for picked entry
## Result P

I = CCSc1nc(N2CCOC[C@H]2C)cc(C)c1C(=O)NCCCC(F)(F)F [Example 235]
II = CCSc1nc(N2CCOCC2)cc(C)c1C(=O)NCCC1CCCCO1 (stereo not shown) [Example 68]
## Task Returns the identifier with the smallest measured Emax among I and II . // respond with label for picked entry
## Result II
